Hello, the source for this data is ChEMBL document CHEMBL2169824, in case you need it.

Target: Delta-type opioid receptor (Homo sapiens)
Sequence (P41143 whole entry): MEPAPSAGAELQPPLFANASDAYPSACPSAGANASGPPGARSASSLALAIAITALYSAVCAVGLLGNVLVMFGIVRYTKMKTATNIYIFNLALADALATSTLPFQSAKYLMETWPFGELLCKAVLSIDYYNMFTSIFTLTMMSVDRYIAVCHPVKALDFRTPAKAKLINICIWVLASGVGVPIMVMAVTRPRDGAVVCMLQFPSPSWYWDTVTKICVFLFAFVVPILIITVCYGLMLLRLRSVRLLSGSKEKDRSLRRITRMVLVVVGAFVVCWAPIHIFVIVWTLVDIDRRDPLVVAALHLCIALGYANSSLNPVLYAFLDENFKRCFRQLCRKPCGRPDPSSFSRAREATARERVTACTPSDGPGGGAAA
Assay: Antagonist activity at DOR
pKi: −log10 of the molar value.

Chem smiles: Cc1cc(O)cc(C)c1C[C@H](N)C(=O)N1Cc2ccccc2C[C@H]1C(=O)NC12C[C@H]3C[C@@H](C1)C[C@@H](C2)C3
Assay system: Delta-type opioid receptor (Homo sapiens)
pKi: 8.91

###

Assay: Drug elimination in po dosed human assessed as unchanged compound level
Type: ADME, organism-based
Details: in vivo, read-out: Drug excretion
Reported metric: dose excreted (%)

Chem smiles: CN(C)CCOCC(=O)NC12CC3CC(CC(C3)C1)C2
Measure unit: %
Test result: 30

###

Assay: Ratio of drug level in liver to blood in human
Assay type: ADME, tissue-based

Chem smiles: CN(C)CCOCC(=O)NC12CC3CC(CC(C3)C1)C2
Kp: 19

###

Test: Protein binding in plasma
Format: ADME, cell-free
Details: read-out: PPB (converted)
Reported metric: fraction unbound

Compound: N#C[C@@H]1C[C@@H]2C[C@@H]2N1C(=O)[C@@H](N)C12CC3CC(CC(O)(C3)C1)C2 [SAXAGLIPTIN ANHYDROUS]
Reported metric: fraction unbound
Test result: 0.7

###

Experiment: Half life in human plasma
Assay type: ADME, cell-free

Compound: CC(N)C12CC3CC(CC(C3)C1)C2 (stereo unspecified) [RIMANTADINE]
half-life (h): 24

###

Listing of entries alongside the reported pKi.
Target: Carbonic anhydrase 2 (Homo sapiens)
Experiment: Inhibition of human CA2
pKi: −log10 of the molar value.
Reported metric: pKi

Chem smiles: NS(=O)(=O)c1nnc(NC(=O)OC23CC4CC(CC(C4)C2)C3)s1
Test result: 8.00
--
Chem smiles: NS(=O)(=O)c1nnc(NC(=O)NC23CC4CC(CC(C4)C2)C3)s1
Test result: 7.89

###

Test: Drug excretion in human urine assessed as unchanged compound level
Type: ADME
Conditions: read-out: Drug excretion
Reported metric: dose excreted (%)

Chem smiles: NC12CC3CC(CC(C3)C1)C2
Reported metric: dose excreted
Measure unit: %
Test result: 65

###

Assay: Solubility in water
Format: physicochemical
Reported metric: solubility (µg/mL)

Chem smiles: O=C(O)CCCCCCCCCCCNC(=O)NC12CC3CC(CC(C3)C1)C2
Reported metric: solubility
Test result: 19

###

Target: Mu-type opioid receptor (Homo sapiens, UniProt P35372)
Sequence (P35372 whole entry): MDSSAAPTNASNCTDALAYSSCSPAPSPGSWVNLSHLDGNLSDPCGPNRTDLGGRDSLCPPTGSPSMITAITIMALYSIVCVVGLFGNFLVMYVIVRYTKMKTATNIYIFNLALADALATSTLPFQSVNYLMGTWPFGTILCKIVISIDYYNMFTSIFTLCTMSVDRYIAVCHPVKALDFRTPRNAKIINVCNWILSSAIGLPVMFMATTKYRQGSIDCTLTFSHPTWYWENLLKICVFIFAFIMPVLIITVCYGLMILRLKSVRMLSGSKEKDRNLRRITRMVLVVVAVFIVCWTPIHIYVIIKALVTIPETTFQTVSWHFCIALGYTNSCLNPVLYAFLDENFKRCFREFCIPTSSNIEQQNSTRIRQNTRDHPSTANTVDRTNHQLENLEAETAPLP
Assay: Antagonist activity at MOR
pKi: −log10 of the molar value.

Chem smiles: Cc1cc(O)cc(C)c1C[C@H](N)C(=O)N1Cc2ccccc2C[C@H]1C(=O)NC12C[C@H]3C[C@@H](C1)C[C@@H](C2)C3
pKi: 7.07
